assayed_system: NELF-B;NELF-E (1-138) (Homo sapiens;Homo sapiens, UniProt Q8WX92;P18615 49-628;1-138, |)
Sequence (Q8WX92 whole entry, chain 1 of 2): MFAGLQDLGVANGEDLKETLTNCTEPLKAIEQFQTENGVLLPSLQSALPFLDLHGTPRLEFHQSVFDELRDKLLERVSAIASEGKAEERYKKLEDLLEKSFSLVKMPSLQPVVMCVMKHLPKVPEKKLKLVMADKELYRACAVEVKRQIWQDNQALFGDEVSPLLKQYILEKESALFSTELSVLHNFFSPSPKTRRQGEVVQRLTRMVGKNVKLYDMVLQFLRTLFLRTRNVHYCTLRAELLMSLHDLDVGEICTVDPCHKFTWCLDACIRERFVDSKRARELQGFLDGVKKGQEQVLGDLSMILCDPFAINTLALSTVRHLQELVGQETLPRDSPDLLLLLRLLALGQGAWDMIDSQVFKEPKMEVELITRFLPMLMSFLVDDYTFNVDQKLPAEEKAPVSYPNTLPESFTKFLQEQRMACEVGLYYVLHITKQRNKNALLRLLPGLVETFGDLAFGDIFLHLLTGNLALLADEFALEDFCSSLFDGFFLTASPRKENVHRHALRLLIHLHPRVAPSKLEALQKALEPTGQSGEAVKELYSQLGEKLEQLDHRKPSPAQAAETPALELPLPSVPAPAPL
Sequence (P18615 1-138, chain 2 of 2): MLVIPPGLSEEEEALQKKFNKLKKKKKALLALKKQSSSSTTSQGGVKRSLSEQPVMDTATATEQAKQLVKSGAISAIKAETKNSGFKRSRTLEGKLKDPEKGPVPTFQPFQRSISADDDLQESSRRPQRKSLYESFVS
experimental_protocol: fluorescence anisotropy; yeast tRNA 5 ug/ml; NELF-AC: 30 mM NaCl, 3 mM MgCl2, 10 mM Na-HEPES pH 7.4, 2 mM DTT, 50 ug/ml BSA; other NELF complexes: same with 60 mM NaCl and 5 ug/ml yeast tRNA; 10 nM nucleic acid, incubated at RT, read at 30 C
condition_set: protein: recombinant;recombinant; tags: N-His6-TEV in NELF-B and NELF-BE constructs (cleaved);none stated; copies: 1;1; label: 5'-FAM; single strand
Recorded Kd values for a group of binders are listed next.
Express it in µM; write the number only.

Report Kd for AAGGGGAGCGGGGGAGGATAATAGG (ssDNA) [60% GC ssDNA] please.
17.4

Now for a further binder.
Report Kd for AAGGGGAGCGGGGGAGGAUAAUAGG (ssRNA) [60% GC ssRNA] please.
2.83

Just for reference, paper PMC4940160 is where these values come from.
